- Test system: Gamma-aminobutyric acid receptor subunit alpha-1 BZD site, GABRA1A (r)
- Format: binding, rat
- Condition description: IPP screening at 100 uM; control diazepam
Peptide text beside a SMILES is read from it.
Recorded endpoint: Specific binding (%)
Give bare numbers, in %.

Worked set:
// sample CC(=O)Nc1ccc(O)cc1 [Paracetamol, N-(4-Hydroxyphenyl)acetamide] , its Specific binding was 8.7

Recorded Specific binding (compound "Nc1ccc(NCCO)c([N+](=O)[O-])c1" ): 16.3

Entry "CC(C)[C@H](N)C(=O)O" — recorded Specific binding = 1.9

Looking up COc1ccc(Cl)cc1C(=O)NCCc1ccc(S(=O)(=O)NC(=O)NC2CCCCC2)cc1 [Glybenclamide] , I found its Specific binding recorded as 13.1

Specific binding in this record for CCCCCCC(O)CO (stereo not drawn) : 10.0

The measured Specific binding associated with CC(C)(CO)C(O)C(=O)NCCCO (stereo not drawn) reads -1.9

Item: CCOC(=O)c1ccc(N)cc1 [Benzocaine, Ethyl 4-aminobenzoate] | Specific binding: -9.1

Specific binding measured on "Nc1cc([N+](=O)[O-])cc(Cl)c1O" = 14.3

# map each compound to its Specific binding
1. C[C@@H]1C[C@H]2[C@@H]3CCC4=CC(=O)C=C[C@]4(C)[C@@]3(F)[C@@H](O)C[C@]2(C)[C@@]1(O)C(=O)CO
2. O=C(O)c1ccc2c(c1)C(=O)OC2=O [Trimellitic anhydride]
3. Cc1c(O)cccc1O
4. COC(=O)[C@H](Cc1ccccc1)NC(=O)[C@@H](N)CC(=O)O [Aspartame] (H-Asp-Phe-OMe)

# output
27.9
12.5
6.5
7.4
